# Experiment Summary: Specific activity of purified CHI, absorbance decrease at 384 nm, hesperetin chalcone; also: unit not given here
# Format: biochemical
# Study Conditions: purified CHI in 50 mM PBS, 100 μM substrate, 25° C.
Recorded Specific activity, Hesperetin chalcone values for a group of molecules are listed next.

{"columns": ["Molecule", "Specific activity, Hesperetin chalcone"],
 "data": [
  ["CHI13: Chalcone isomerase from Lactobacillus sp. 54-2, access no. WP_125715151.1 (protein, Lactobacillus sp. 54-2) SFEFRPMRSVIYVDVIKEKYRPKLLHWLYGHHIQDSISKFGPYVTKYAFYNAFPVPPEGERFGTRRMQMTEHYWLINEMTPEMKNNAITEYMPKDVLRWQGNIPDTDAAAAGNVDGDTGRSAGGANGCQPFVFAHVPINWEEDYKGDGRMVADGPNYRWQFVIKYPENLTEAAGEAWFHDEVVPYFKGRPEVHRFMSSRIMQDVVGCEFERLVEMWFDSEDEWYTAAVAGTTALKKPSWAQQNQFPFLTPQFNIVGMFLPDIPTSDNLAQYRGYITMR", 2.0]
]}

Next up:
Prompt line: Give the measured Specific activity, Hesperetin chalcone of CHIera: Chalcone isomerase from Eubacterium ramulus (protein, listed as Eubacterium ramulus) ADFKFEPMRSLIYVDCVSEDYRPKLQRWIYKVHIPDSISQFEPYVTKYAFYPSFPIPPQGDRFGYARMQLTEHHWLVSDLDPRLEIKAIAETFPMDVLVWQGQIPAAAHTDAQIDSDGDAGNAARKSNNAEGNPFIFAFLPMWWEKDLKGKGRTIEDGANYRFNMTIGFPEGVDKAEGEKWLFEKVVPILQAAPECTRVLASAVKKDINGCVMDWVLEIWFENQSGWYKVMVDDMKALEKPSWAQQDAFPFLKPYHNVCSAAVADYTPSNNLANYRGYITMR .
Response line: 31.5
